All values here come from patent US12076320B2.

method: Metabolic stability evaluation in human liver microsomes
Type: in vitro ADME
particulars: pH 7.4; human liver microsomes 0.5 mg/mL, compound 1 μM; read-out: HLM CL
property measured: microsomal CLint at 1 μM (µL/min/mg)
# number only, unit µL/min/mg dropped from output

Q) Using known records, supply microsomal CLint at 1 μM for COC(=O)N[C@@H](C)CNc1nccc(-c2cn(C(C)C)nc2-c2cc(Cl)cc(NS(C)(=O)=O)c2F)n1 [Encorafenib, reference compound]
A) 17.3

Q) Using known records, supply microsomal CLint at 1 μM for [2H]C([2H])([2H])OC(=O)N[C@@H](C)CNc1nccc(-c2cn(C(C)C)nc2-c2cc(Cl)cc(NS(C)(=O)=O)c2F)n1 (single isomer, unassigned)
A) 9.07

Q) Using known records, supply microsomal CLint at 1 μM for [2H]C([2H])([2H])OC(=O)N[C@@H](C)CNc1nccc(-c2cn(C([2H])(C([2H])([2H])[2H])C([2H])([2H])[2H])nc2-c2cc(Cl)cc(NS(C)(=O)=O)c2F)n1 (single isomer, unassigned)
A) 4.87

Q) Using known records, supply microsomal CLint at 1 μM for [2H]C([2H])([2H])C([2H])(n1cc(-c2ccnc(NC[C@H](C)NC(=O)OC)n2)c(-c2cc(Cl)cc(NS(C)(=O)=O)c2F)n1)C([2H])([2H])[2H] (single isomer, unassigned)
A) 9.47

Q) Using known records, supply microsomal CLint at 1 μM for [2H]C([2H])([2H])[C@H](NC(=O)OC)C([2H])([2H])Nc1nccc(-c2cn(C(C)C)nc2-c2cc(Cl)cc(NS(C)(=O)=O)c2F)n1 (single isomer, unassigned)
A) 12.5
